- TEST PROTOCOL: Pharmacokinetic measurements of H3B-6527 capsules in patients (trial NCT02834780), plasma LC-MS/MS
- Format: in vivo, human
- RUN CONDITIONS: human, plasma, oral, 600 mg, 600 mg QD, fed, Day 8; Table 5, nominal times; read-out: Half-life, geometric mean (CV%) (converted)
QUANTITY MEASURED: half-life (h)

• C=CC(=O)Nc1cc(N2CCN(CC)CC2)ccc1Nc1cc(N(C)C(=O)Nc2c(Cl)c(OC)cc(OC)c2Cl)ncn1 [H3B-6527] = 3.2

====

- TEST PROTOCOL: Pharmacokinetic measurements of H3B-6527 capsules in patients (trial NCT02834780), plasma LC-MS/MS
- Assay type: in vivo, human
- RUN CONDITIONS: human, plasma, oral, 600 mg, 600 mg QD, fed, Day 1; Table 6, actual times after QC; read-out: Tmax, median (min-max)
QUANTITY MEASURED: Tmax (h)

- C=CC(=O)Nc1cc(N2CCN(CC)CC2)ccc1Nc1cc(N(C)C(=O)Nc2c(Cl)c(OC)cc(OC)c2Cl)ncn1: 4

====

- TEST PROTOCOL: Pharmacokinetic measurements of H3B-6527 capsules in patients (trial NCT02834780), plasma LC-MS/MS
- Type: in vivo, human
- RUN CONDITIONS: human, plasma, oral, 2000 mg, 2000 mg QD, fed, Day 1; Table 6, actual times after QC; read-out: AUC, geometric mean (CV%)
QUANTITY MEASURED: AUC (ng·h/mL)

* C=CC(=O)Nc1cc(N2CCN(CC)CC2)ccc1Nc1cc(N(C)C(=O)Nc2c(Cl)c(OC)cc(OC)c2Cl)ncn1 | 2950

====

- TEST PROTOCOL: Pharmacokinetic measurements of H3B-6527 capsules in patients (trial NCT02834780), plasma LC-MS/MS
- Format: in vivo, human
- RUN CONDITIONS: human, plasma, oral, 700 mg, 700 mg BID, fed, Day 1; Table 6, actual times after QC; read-out: Half-life, geometric mean (CV%) (converted)
QUANTITY MEASURED: half-life (h)

- C=CC(=O)Nc1cc(N2CCN(CC)CC2)ccc1Nc1cc(N(C)C(=O)Nc2c(Cl)c(OC)cc(OC)c2Cl)ncn1 [H3B-6527]: 2.13

====

- TEST PROTOCOL: Pharmacokinetic measurements of H3B-6527 capsules in patients (trial NCT02834780), plasma LC-MS/MS
- Type: in vivo, human
- RUN CONDITIONS: human, plasma, oral, 2000 mg, 2000 mg QD, fed, Day 1; Table 6, actual times after QC; read-out: Half-life, geometric mean (CV%) (converted)
QUANTITY MEASURED: half-life

- C=CC(=O)Nc1cc(N2CCN(CC)CC2)ccc1Nc1cc(N(C)C(=O)Nc2c(Cl)c(OC)cc(OC)c2Cl)ncn1: 4.14 h

====

- TEST PROTOCOL: Pharmacokinetic measurements of H3B-6527 capsules in patients (trial NCT02834780), plasma LC-MS/MS
- Assay type: in vivo, human
- RUN CONDITIONS: human, plasma, oral, 500 mg, 500 mg BID, fasted, Day 8; Table 5, nominal times; read-out: Half-life, geometric mean (CV%) (converted)
QUANTITY MEASURED: half-life (h)

• C=CC(=O)Nc1cc(N2CCN(CC)CC2)ccc1Nc1cc(N(C)C(=O)Nc2c(Cl)c(OC)cc(OC)c2Cl)ncn1 [H3B-6527] = 1.8
